System: primary human fibroblasts derived from IPF patients (LL29 cells)
Assay: Inhibition of the fibrotic process in TGF-β1 treated IPF patient fibroblasts (αSMA staining)
Format: cell-based
Details: Fibroblast, 96 h, LL29 cells treated with TGF-β1 (20 ng/mL), 4 days, read-out: Inhibition of fibrosis EC50
pEC50: −log10 of the molar value.
Below is a list of entries, each paired with its recorded pEC50 value.

Reference set (5 entries):
{"smiles-string": "Fc1cccc(-c2ccnc3[nH]c(-c4n[nH]c5ncc(-c6ccccn6)cc45)nc23)c1", "measurement-target": "primary human fibroblasts derived from IPF patients (LL29 cells)", "measured-property": "pEC50", "result": "≤ 5.00"}
{"smiles-string": "O=C(Cc1ccccc1)Nc1cncc(-c2cnc3[nH]nc(-c4nc5cccnc5[nH]4)c3c2)c1", "measurement-target": "primary human fibroblasts derived from IPF patients (LL29 cells)", "measured-property": "pEC50", "result": "≤ 5.00"}
{"smiles-string": "c1cncc(-c2ccnc3[nH]c(-c4n[nH]c5ncc(-c6cncc(CN7CCCCC7)c6)cc45)nc23)c1", "measurement-target": "primary human fibroblasts derived from IPF patients (LL29 cells)", "measured-property": "pEC50", "result": "≤ 5.00"}
{"smiles-string": "Fc1cccc(-c2ccnc3[nH]c(-c4n[nH]c5ncc(C6CCNCC6)cc45)nc23)c1", "measurement-target": "primary human fibroblasts derived from IPF patients (LL29 cells)", "measured-property": "pEC50", "result": "≤ 5.00"}
{"smiles-string": "Cc1cn(-c2ccnc3[nH]c(-c4n[nH]c5ncc(-c6cncc(NC(=O)C(C)(C)C)c6)cc45)nc23)cn1", "measurement-target": "primary human fibroblasts derived from IPF patients (LL29 cells)", "measured-property": "pEC50", "result": "≤ 5.00"}

Incoming: Would you mind telling me what pEC50 value was observed for `Cc1ccc(-c2ccnc3[nH]c(-c4n[nH]c5ncc(-c6cncc(N)c6)cc45)nc23)s1` ?
Outgoing: 7.40

Incoming: Would you mind telling me what pEC50 value was observed for `O=C(Nc1cncc(-c2cnc3[nH]nc(-c4nc5cccnc5[nH]4)c3c2)c1)C1CCCCC1` ?
Outgoing: ≥ 8.05

Incoming: Would you mind telling me what pEC50 value was observed for `CCNCc1cncc(-c2cnc3[nH]nc(-c4nc5c(-c6ccoc6)ccnc5[nH]4)c3c2)c1` ?
Outgoing: ≥ 8.05

Incoming: Would you mind telling me what pEC50 value was observed for `Cc1ccc(-c2ccnc3[nH]c(-c4n[nH]c5ncc(-c6cncc(CN7CCCCC7)c6)cc45)nc23)s1` ?
Outgoing: ≤ 5.00

Incoming: Would you mind telling me what pEC50 value was observed for `Nc1cncc(-c2cnc3[nH]nc(-c4nc5c(-c6ccccc6F)ccnc5[nH]4)c3c2)c1` ?
Outgoing: ≥ 8.05

Incoming: Would you mind telling me what pEC50 value was observed for `CC(C)C(=O)Nc1cncc(-c2cnc3[nH]nc(-c4nc5c(N6CCN(C)CC6)ccnc5[nH]4)c3c2)c1` ?
Outgoing: ≥ 8.05

Incoming: Would you mind telling me what pEC50 value was observed for `Fc1ccc(-c2ccnc3[nH]c(-c4n[nH]c5ncc(-c6cncc(CN7CCCC7)c6)cc45)nc23)cc1` ?
Outgoing: 5.11

Incoming: Would you mind telling me what pEC50 value was observed for `CC(C)CC(=O)Nc1cncc(-c2cnc3[nH]nc(-c4nc5c(-c6ccc(F)s6)ccnc5[nH]4)c3c2)c1` ?
Outgoing: 6.72

Incoming: Would you mind telling me what pEC50 value was observed for `Fc1cccc(-c2ccnc3[nH]c(-c4n[nH]c5ncc(-c6cncc(OC7CCNCC7)c6)cc45)nc23)c1` ?
Outgoing: ≥ 8.05

Incoming: Would you mind telling me what pEC50 value was observed for `CCCC(=O)Nc1cncc(-c2cnc3[nH]nc(-c4nc5c(-c6ccsc6)ccnc5[nH]4)c3c2)c1` ?
Outgoing: 7.46

Just for reference, patent US10526347B2 is where these values come from.
